experimental_details: Solubilization of dyes in aqueous polymer solution vs water, TLC spot comparison
assay_conditions: deionized water (unbuffered), water, thermodynamic from solid
parameter_measured: solubility

For the compound "O=C1OC2(c3cc(Cl)c(O)cc3Oc3cc(O)c(Cl)cc32)c2ccccc21" , what solubility is on record?
≥ 10 µg/mL

Data origin: patent US20100008938A1
